The measurements presented in this section are drawn from ChEMBL document CHEMBL5291721.

System: Growth hormone secretagogue receptor type 1 (Homo sapiens, UniProt Q92847) | Read-out: AC50; note: assay procedure not described here
Sequence (Q92847 whole entry): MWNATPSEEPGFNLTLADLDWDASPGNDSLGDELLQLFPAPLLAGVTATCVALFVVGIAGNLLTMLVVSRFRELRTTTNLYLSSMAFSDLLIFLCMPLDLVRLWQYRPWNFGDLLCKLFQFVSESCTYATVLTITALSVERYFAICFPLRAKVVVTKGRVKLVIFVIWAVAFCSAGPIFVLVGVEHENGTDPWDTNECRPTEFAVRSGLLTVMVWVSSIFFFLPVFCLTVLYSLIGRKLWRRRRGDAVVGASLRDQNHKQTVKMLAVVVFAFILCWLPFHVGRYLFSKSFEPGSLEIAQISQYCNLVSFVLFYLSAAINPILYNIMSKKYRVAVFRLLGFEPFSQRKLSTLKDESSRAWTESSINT
reported-metric: AC50

molecule	target-system	recorded-value
CN(C)c1cc(NC(=O)CNC(C)(C)C)c(O)c2c1C[C@H]1C[C@H]3[C@H](N(C)C)C(O)=C(C(N)=O)C(=O)[C@@]3(O)C(O)=C1C2=O [TIGECYCLINE]	Growth hormone secretagogue receptor type 1 (Homo sapiens, UniProt Q92847)	> 30 µM
CC(C)OC(=O)C(C(=O)OC(C)C)=C1SC=CS1 [MALOTILATE]	Growth hormone secretagogue receptor type 1 (Homo sapiens, UniProt Q92847)	> 30 µM
CC(C)CC(N(C)C)C1(c2ccc(Cl)cc2)CCC1 (stereo not drawn) [SIBUTRAMINE]	Growth hormone secretagogue receptor type 1 (Homo sapiens, UniProt Q92847)	> 30 µM
O=C(CCCN1CCC2(CC1)C(=O)NCN2c1ccccc1)c1ccc(F)cc1 [SPIPERONE]	Growth hormone secretagogue receptor type 1 (Homo sapiens, UniProt Q92847)	> 10 µM
C#C[C@]1(O)CC[C@H]2[C@@H]3CCc4cc(OC)ccc4[C@H]3CC[C@@]21C [MESTRANOL]	Growth hormone secretagogue receptor type 1 (Homo sapiens, UniProt Q92847)	> 10 µM
C[C@@H]1CCC[C@H](C)N1NC(=O)c1ccc(Cl)c(S(N)(=O)=O)c1 [CLOPAMIDE]	Growth hormone secretagogue receptor type 1 (Homo sapiens, UniProt Q92847)	> 30 µM
CC(C)N(CCCCOCC(=O)NS(C)(=O)=O)c1cnc(-c2ccccc2)c(-c2ccccc2)n1 [SELEXIPAG]	Growth hormone secretagogue receptor type 1 (Homo sapiens, UniProt Q92847)	> 30 µM
COc1ccc(Cc2nccc3cc(OC)c(OC)cc23)cc1OC [PAPAVERINE]	Growth hormone secretagogue receptor type 1 (Homo sapiens, UniProt Q92847)	> 30 µM
